assay.name: Human HepG2 cell viability assay in 384 well format
Assay type: toxicity, cell-based
Design: dose 125 nL, time 70.5 hour; concentration not given beside the values
conditions: HepG2 cells, read-out: Inhibition
quantity.measured: cytotoxicity at 70.5 h (%)
Quick note: give the figure in %, leave out the unit.

COc1ccccc1OCCc1nnc(NC(=O)C2CC23CCC3)s1 (centres undefined) : -2.4
COc1ccc(S(=O)(=O)C(F)(F)F)cc1NC(=O)CSC : -1.98
CCOCC1CN(S(C)(=O)=O)Cc2cnn(CC3CCOCC3)c21 (centres undefined) : -0.335
CS(=O)(=O)c1ccc(-c2nc(C(=O)N3CCCC3)n3ccccc23)cc1 : -8.24
COc1cccc(SCC(=O)N2CCC(N3CCCC(O)C3)CC2)c1 (centres undefined) : -2.74

# get_value(readout='cytotoxicity at 70.5 h', item= `O=C(c1cnccn1)N1C[C@@H](OCc2cccnc2)[C@H]2OCCC[C@H]21` )
8.16

Then what about the compound `Cc1cc(C(N)=O)c(N2C[C@@H](C)[C@@](C)(O)C2)nc1C` ?
-7.31

Then what about the compound Cc1cc(C(=O)N2CC(O)CO2)c2ccc(C)c(C)c2n1 (centres undefined) ?
-6.82

Then what about the compound Cc1nc(Nc2cnccn2)cc(C2CCCN2C2CCOCC2)n1 (centres undefined) ?
-5.63

Then what about the compound CC(C)N1CCCC1c1cc(C(F)(F)F)[nH]n1 (centres undefined) ?
0.712

Then what about the compound `COc1nn(C)c2c1CCCN(C(=O)c1cccs1)C2` ?
-23.5

----------
assay.name: Human HepG2 cell viability assay in 384 well format
Type: toxicity, cell-based
Set-up: dose 125 nL, time 70.5 hour; concentration not given beside the values
conditions: HepG2 cells, read-out: Inhibition
quantity.measured: cytotoxicity at 70.5 h (%)
Quick note: give the figure in %, leave out the unit.

Reference set, count: 3
O=C(O)C1CC2(CCN(c3nccc4ccccc34)CC2)CN1 (stereo not given) : 9.49
COc1ccc(C(=O)N2CCC(Oc3ccccc3)(C(=O)O)CC2)o1 : 2.93
c1ccc2c(c1)CC(n1ccnc1-c1cc3n(n1)CCCNC3)CO2 (stereo not given) : -6.83

# get_value(readout='cytotoxicity at 70.5 h', item= Cc1c(NC(=O)C(C)N(C)C)c(=O)n(-c2ccccc2)n1C (stereo not given) )
-1.07

Then what about the molecule `c1cncc(CN2CCO[C@H]3[C@H](OCCN4CCCC4)CC[C@@H]32)c1` ?
-8.38

----------
assay.name: Human HepG2 cell viability assay in 384 well format
Type: toxicity, cell-based
Design: dose 125 nL, time 70.5 hour; concentration not given beside the values
conditions: HepG2 cells, read-out: Inhibition
Quick list: cytotoxicity at 70.5 h per entry.
# number then unit; no other words

Cc1cc2cccc(C(=O)N3CCOC(CCN(C)C)C3)c2o1 (centres undefined) : -17.3%

# get_value(readout='cytotoxicity at 70.5 h', item= c1cncc(N2CCCC3(CCN(CC4CCCO4)CC3)C2)c1 (centres undefined) )
-7.19%

Then what about the compound `COc1cccc(C(=O)N2CCN(C(=O)CCCn3ccnc3)CC2)c1` ?
26.1%

Then what about the compound `Cc1ccccc1OC1CCN(CC(=O)Nc2cn(C)nc2C)CC1` ?
-1.78%

----------
Quick list: cytotoxicity at 70.5 h per entry.
assay.name: Human HepG2 cell viability assay in 384 well format
Format: toxicity, cell-based
Set-up: dose 125 nL, time 70.5 hour; concentration not given beside the values
conditions: HepG2 cells, read-out: Inhibition
Quick note: give the figure in %, leave out the unit.

Reference set, count: 6
NC(=O)c1cccc(OCC(=O)N2CCCC(n3cccn3)C2)c1 (stereo not drawn) : 3.84
CNC(=O)NC(C)c1c(F)cccc1Cl (stereo not drawn) : -107
CCn1nc2c(cc1=O)CN(CC(=O)Nc1nccs1)CC2 : -2.47
Cc1cc(-c2cnc(NC3CC3)nc2-c2ccc(C)o2)on1 : -9.8
COC(=O)CCNC(=O)c1cccc(C(=O)N(C)c2ccccc2)c1 : 31.4
Cc1nc(C2CCCN2C(=O)CC2CCCC2)ncc1C(N)=O (stereo not drawn) : -4.71

# get_value(readout='cytotoxicity at 70.5 h', item= `Cc1nc(C(=O)N2CCOCC2)cc(N2CCC(C(N)=O)CC2)n1` )
-0.347

Then what about the compound O=C(c1ccsc1)N1CCC2(CCN2Cc2ccc(F)cc2)C1 (stereo not drawn) ?
-8.12

----------
assay.name: Human HepG2 cell viability assay in 384 well format
Format: toxicity, cell-based
Design: dose 125 nL, time 70.5 hour; concentration not given beside the values
conditions: HepG2 cells, read-out: Inhibition
quantity.measured: cytotoxicity at 70.5 h (%)
Quick note: give the figure in %, leave out the unit.

CCCNC(=O)NC(=O)CN1C=Nc2ccccc2S1(=O)=O : -11.8
Cn1ccc(C(=O)N2CCCCC2c2cc(CCO)[nH]n2)n1 (stereo not given) : -1.7
Cc1n[nH]c(=O)c2c(NC(=O)CN3CCOC(C)C3)oc(C)c12 (stereo not given) : 12.5
CCOCC1CN(S(=O)(=O)c2ccccc2)Cc2nccn2C1 (stereo not given) : 13.5

# get_value(readout='cytotoxicity at 70.5 h', item= Cc1ccc(C)n1-c1c(C(=O)NCC(C)Cn2cccn2)cnn1C (stereo not given) )
-21.4

Then what about the molecule Cc1nc(C2CCCN(C(=O)c3cccc4c3OCO4)C2)sc1C (stereo not given) ?
-2.18

----------
assay.name: Human HepG2 cell viability assay in 384 well format
Type: toxicity, cell-based
Set-up: dose 125 nL, time 70.5 hour; concentration not given beside the values
conditions: HepG2 cells, read-out: Inhibition
Quick list: cytotoxicity at 70.5 h per entry.
Quick note: give the figure in %, leave out the unit.

O=C(Nc1ccccc1)C1=NOC2(CCCN(C(=O)N3CCCC3)C2)C1 (stereo not drawn) : -0.586
Cc1nc(CN2CCCC2Cn2ccnc2C(C)C)nc2ccccc12 (stereo not drawn) : 19.9
COCC(=O)N1CCC2(C1)c1ccccc1S(=O)(=O)N2CC1CC1 (stereo not drawn) : -8.07
CCc1ccc(NS(=O)(=O)c2cc3c(c(C(=O)O)c2)OCCO3)cc1 : -0.0386

Turning now to a further compound:
# get_value(readout='cytotoxicity at 70.5 h', item= `CN1C(=O)c2cccc(NC(=O)c3cccc(S(C)(=O)=O)c3)c2C1=O` )
-4.72

----------
assay.name: Human HepG2 cell viability assay in 384 well format
Format: toxicity, cell-based
Parameters: dose 125 nL, time 70.5 hour; concentration not given beside the values
conditions: HepG2 cells, read-out: Inhibition
quantity.measured: cytotoxicity at 70.5 h (%)
Quick note: give the figure in %, leave out the unit.

Reference set, count: 3
Cc1cccc(C(C(=O)N2CC(c3cccnc3)C2)N(C)C)c1 (stereo not drawn) : -0.966
Cc1ccsc1CN1CC[C@H]2O[C@H](C(=O)N3CCCO3)CC[C@H]21 : -8.24
CN1CCN(CC2(O)CCCN(C(=O)Cc3cccc(O)c3)CC2)CC1 (stereo not drawn) : -12.4

# get_value(readout='cytotoxicity at 70.5 h', item= `c1nc2n(c1CN1CCCC1)CCN(C1CCOCC1)CC2` )
-7.69

Then what about the compound `N#Cc1ccc(CN2CCc3sccc3C2)c(F)c1` ?
-1.03

Then what about the compound `CCOc1ncccc1CN1Cc2ncccc2C1=O` ?
-6.82

Then what about the compound `COc1ccc(CN(C)C2CCN(C(=O)C(C)C)CC2)c2cccnc12` ?
-10.3

Then what about the compound O=C(c1cc2c(s1)CCC2)N1CCCC1c1noc(C2CC2)n1 (stereo not drawn) ?
-0.753

Then what about the compound `CN1CCN(Cc2ccoc2)Cc2cccnc21` ?
-4.02

Then what about the compound `CCc1nnc(Nc2cccc(C3CCN(C)CC3)n2)s1` ?
35

Then what about the compound `c1cncc(OCc2noc3c2CN(Cc2ccsc2)CC3)c1` ?
15.9

Then what about the compound `COCCSCC(=O)NCc1ccnc(N(C)C)c1` ?
-8.31

Then what about the compound `O=C(c1ccc(F)cc1F)N1CC[C@H](O)[C@@H](N2CCOCC2)CC1` ?
-13.9

----------
assay.name: Human HepG2 cell viability assay in 384 well format
Assay type: toxicity, cell-based
Parameters: dose 125 nL, time 70.5 hour; concentration not given beside the values
conditions: HepG2 cells, read-out: Inhibition
quantity.measured: cytotoxicity at 70.5 h (%)
Quick note: give the figure in %, leave out the unit.

COc1ccc(C(C)NCCc2ccc(NC(C)=O)cc2)c(OC)c1 (configuration not stated) : 0.0966
Cc1ccc(C(C)NC(=O)N2CCNC(=O)CC2)cc1F (configuration not stated) : -17.7
CC(C)=CCN1CCN(C(=O)COc2ccccc2)[C@H]2CS(=O)(=O)C[C@H]21 : 1.61
Cc1nonc1C(=O)N1CCCC(c2ncncc2-c2ccncc2)C1 (configuration not stated) : -28.8
CC(C)c1nccn1Cc1cc(C(=O)NCC(F)(F)F)n[nH]1 : -9.18
O=C(c1ncccc1O)N1CCN(Cc2ccco2)C(CCO)C1 (configuration not stated) : -11.1
CCCC(=O)N1CCN(CCN(C)C)c2nc(C)ccc2C1 : -2.97
O=C(NC1CC1)C1CN(Cc2ccc3c(c2)OCCO3)CCN1 (configuration not stated) : -11.1
O=C(Nc1ccccc1)N1CCn2c(nnc2C2CCCN2)C1 (configuration not stated) : -9.71
Cn1ncc2c1C(COCC1CC1)CN(C(=O)c1ccoc1)C2 (configuration not stated) : 14.1

# get_value(readout='cytotoxicity at 70.5 h', item= Cc1ccc(CN2CCCC(c3cnccn3)C2)s1 (configuration not stated) )
-1.38

Then what about the compound CNC(=O)COC1COC2(CCN(c3ccc(C)nn3)CC2)C1 (configuration not stated) ?
0.115

Then what about the compound CC1(C)Cc2nc(C(C)(C)C)ncc2C(NC(=O)CN)C1 (configuration not stated) ?
-10.1

Then what about the compound `COCCN1C(=O)CC[C@]12CC[C@@H](NCc1nccs1)CC2` ?
-6.2

Then what about the compound `Fc1cnc(N2CCN(Cc3ccc(-c4cc[nH]n4)o3)CC2)nc1` ?
-3.42

Then what about the compound `O=C(C1CCCCC1)N1CCC(n2nc(-c3ccco3)ccc2=O)CC1` ?
-0.841

Then what about the compound `CN(c1cccnn1)C1CCN(C(=O)Cc2c[nH]c3ccccc23)CC1` ?
-4.23
